Experiment: in vivo
Conditions: in vivo, po, oral bioavailability (%)
quantity.name: bioavailability (%)
Output spec: scalar in %, unitless text.

// recorded bioavailability for C/C=C1/C[C@@H](C)[C@@](C)(O)C(=O)OCC2=CCN3CC[C@@H](OC1=O)[C@@H]23 : 4

----------
Form field: Bee without gut % (one value per entry).
Test: in vivo
Conditions: percentage of total quantity recovered in the dissected bee found in the bee without gut; N = 6; ± SD
Respond with a number, then the unit of measure.

INSERT INTO results (compound, value_reported) VALUES
  ('CC(C)[C@]12O[C@H]1[C@@H]1O[C@]13[C@]1(O[C@H]1C[C@H]1C4=C(CC[C@@]13C)C(=O)OC4)[C@@H]2O [triptolide, Triptolide]', '79 ± 11%'),
  ('C=C[C@]12CN(C)[C@@H]3[C@H]4CO[C@H](C[C@H]41)[C@]1(C(=O)Nc4ccccc41)[C@@H]32 [gelsemine, Gelsemine]', '71 ± 32%'),
  ('C/C=C1/C[C@@H](C)[C@@](C)(O)C(=O)OC/C2=C/CN(C)CC[C@@H](OC1=O)C2=O [senkirkine, Senkirkine]', '73 ± 28%');

// recorded Bee without gut % for CCN1C[C@]2(COC(=O)c3ccccc3N3C(=O)C[C@H](C)C3=O)CC[C@H](OC)[C@@]34[C@@H]5C[C@H]6[C@H](OC)[C@@H]5[C@](O)(C[C@@H]6OC)[C@@](O)([C@@H](OC)[C@H]23)[C@@H]14 [methyllycaconitine, Methyllycaconitine] : 81 ± 13%

// recorded Bee without gut % for CN1[C@@H]2CC[C@H]1C[C@@H](OC(=O)C(CO)c1ccccc1)C2 (stereo partly drawn) [atropine, Atropine, reference compound] : 46 ± 15%

// recorded Bee without gut % for N#C[C@H](O[C@@H]1O[C@H](CO[C@@H]2O[C@H](CO)[C@@H](O)[C@H](O)[C@H]2O)[C@@H](O)[C@H](O)[C@H]1O)c1ccccc1 [amygdalin, Amygdalin] : 90 ± 5%

----------
Assay: in vivo
Conditions: percentage of total quantity recovered in the dissected bee found in the gut; N = 6; ± SD
Form field: Gut % (one value per entry).
Output spec: scalar in %, unitless text.

Consider the reported Gut % for these compounds:
INSERT INTO measurements (compound, unit_string, value_reported) VALUES
  ('C=C[C@]12CN(C)[C@@H]3[C@H]4CO[C@H](C[C@H]41)[C@]1(C(=O)Nc4ccccc41)[C@@H]32 [gelsemine, Gelsemine]', '%', 30),
  ('CC(C)[C@]12O[C@H]1[C@@H]1O[C@]13[C@]1(O[C@H]1C[C@H]1C4=C(CC[C@@]13C)C(=O)OC4)[C@@H]2O [triptolide, Triptolide]', '%', 21);

// recorded Gut % for C/C=C1/C[C@@H](C)[C@@](C)(O)C(=O)OC/C2=C/CN(C)CC[C@@H](OC1=O)C2=O [senkirkine, Senkirkine] : 27

// recorded Gut % for N#C[C@H](O[C@@H]1O[C@H](CO[C@@H]2O[C@H](CO)[C@@H](O)[C@H](O)[C@H]2O)[C@@H](O)[C@H](O)[C@H]1O)c1ccccc1 [amygdalin, Amygdalin] : 11

// recorded Gut % for CCN1C[C@]2(COC(=O)c3ccccc3N3C(=O)C[C@H](C)C3=O)CC[C@H](OC)[C@@]34[C@@H]5C[C@H]6[C@H](OC)[C@@H]5[C@](O)(C[C@@H]6OC)[C@@](O)([C@@H](OC)[C@H]23)[C@@H]14 [methyllycaconitine, Methyllycaconitine] : 19

// recorded Gut % for CN1[C@@H]2CC[C@H]1C[C@@H](OC(=O)C(CO)c1ccccc1)C2 (stereo partly drawn) [atropine, Atropine, reference compound] : 54

Each recorded value in this set is attributed to paper PMC7884015.
